- Target under test: TRPM4 (Homo sapiens)
- Construct: FLAG (N); also Jurkat cells (endogenous TRPM4)
- Sequence (Q8TD43 whole entry): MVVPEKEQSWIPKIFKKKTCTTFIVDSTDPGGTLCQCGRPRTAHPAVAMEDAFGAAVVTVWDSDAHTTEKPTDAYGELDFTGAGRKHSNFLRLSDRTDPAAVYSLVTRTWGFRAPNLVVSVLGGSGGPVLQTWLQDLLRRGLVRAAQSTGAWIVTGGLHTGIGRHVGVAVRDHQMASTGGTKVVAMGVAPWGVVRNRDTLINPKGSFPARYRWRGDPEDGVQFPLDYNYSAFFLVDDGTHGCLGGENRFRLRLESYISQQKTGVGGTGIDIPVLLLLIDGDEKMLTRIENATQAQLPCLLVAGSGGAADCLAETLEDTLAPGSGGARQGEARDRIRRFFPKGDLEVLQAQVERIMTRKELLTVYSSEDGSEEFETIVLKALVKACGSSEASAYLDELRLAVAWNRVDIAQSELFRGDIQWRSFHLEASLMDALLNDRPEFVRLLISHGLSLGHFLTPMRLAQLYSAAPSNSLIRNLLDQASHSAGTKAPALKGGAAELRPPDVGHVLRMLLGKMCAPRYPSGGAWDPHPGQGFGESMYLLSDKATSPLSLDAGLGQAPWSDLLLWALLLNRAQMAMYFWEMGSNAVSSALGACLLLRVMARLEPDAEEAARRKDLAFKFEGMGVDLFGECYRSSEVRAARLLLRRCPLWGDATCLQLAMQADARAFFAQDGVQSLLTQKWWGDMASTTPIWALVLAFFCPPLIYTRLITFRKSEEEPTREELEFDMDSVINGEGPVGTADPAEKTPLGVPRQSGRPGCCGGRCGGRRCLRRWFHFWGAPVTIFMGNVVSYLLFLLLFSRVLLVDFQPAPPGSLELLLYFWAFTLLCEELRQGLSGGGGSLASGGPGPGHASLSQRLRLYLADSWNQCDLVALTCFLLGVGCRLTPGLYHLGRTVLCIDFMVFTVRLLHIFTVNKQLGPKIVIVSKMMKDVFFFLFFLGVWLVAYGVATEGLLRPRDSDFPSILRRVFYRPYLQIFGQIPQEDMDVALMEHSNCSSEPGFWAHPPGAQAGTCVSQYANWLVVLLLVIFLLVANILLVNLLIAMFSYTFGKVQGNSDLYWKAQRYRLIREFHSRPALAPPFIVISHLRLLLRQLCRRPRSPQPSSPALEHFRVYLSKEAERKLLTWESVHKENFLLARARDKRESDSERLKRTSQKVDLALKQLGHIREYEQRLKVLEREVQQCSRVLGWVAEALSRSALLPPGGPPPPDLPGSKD
- Test protocol: Activation of TRPM4 channel, whole-cell patch clamp in Jurkat cells and HEK-293 cells overexpressing TRPM4
- Condition details: free intracellular calcium 300 nM
- Procedure: Human leukemic T cells (Jurkat cells) and HEK 293 cells transfected with the FLAG-humanTRPM4/pCDNA4/TO construct were grown on glass coverslips with DMEM medium supplemented with 10% FBS, blasticidin (5 μg/mL) and zeocin (0.4 g/mL). […] Patch clamp experiments were performed in the tight-seal whole-cell configuration at 21-25° C. […] Capacitive currents and series resistance were determined and corrected before each voltage ramp using the automatic capacitance compensation of the EPC-9. […]
pEC50: −log10 of the molar value.
// reported pEC50 per item

>>> print(df.to_string())
                                   compound  reported_property  observed_value
0  Cc1nnsc1C(=O)Nc1ccc(-c2cc(C(F)(F)F)ccc2C(F)(F)F)cc1              pEC50    7.30 to 7.70

For the next question, use this compound.
For the compound `O=C(Nc1ccc(-c2cc(C(F)(F)F)ccc2Cl)cc1)c1cccc(F)c1F` , report pEC50.
7.30 to 7.70
